Assignment: determine reported pIC50 for the given sequences.
- assayed_target: A*6802 (Homo sapiens, UniProt P04439, A269V/D140Y/D185E/E176V/E277Q/E87N/F33Y/G231S/I121R/I166T/I218V/L180W/L300P/L318F/N151K/P208A/P217A/Q86R/R138H/R169H/S129P/T345S/V36M)
- procedure_summary: biochemical
- Assay type: binding
No end group written: not given here.
pIC50 (log units): -log10 of the concentration in mol/L.

Lookup result for TILQQLLFI [Peptide 1525.26] ; measured pIC50: 5.15

Lookup result for YLWWVNNQSV [Peptide 9013.0197] ; measured pIC50: 7.77

Lookup result for MLGVLVGVALI [Peptide 9013.0349] ; measured pIC50: 5.06

Lookup result for IIYPNASLLV [Peptide 9013.0144] ; measured pIC50: 6.08

Lookup result for YTLHVIKSDV [Peptide 9013.0151] ; measured pIC50: 7.80

Lookup result for MTSNPAIPV [Peptide 1539.03] ; measured pIC50: 8.70

Lookup result for TLESTPFNV [Peptide 9013.0012] ; measured pIC50: 6.62
